assay: yeast display, Sf9 membrane polyspecificity reagent, FACS + sequencing; frameworks hold sequencing errors

{"sequence chain": "QVQLVESGGGLVQAGGSLRLSCAASGNTIYKYTMGWSRQAPGKERELVAVISSSSGSTYYADSVKGRFTISRDNAKNTVYLQMNSLKPEDTAVYYCNKRGWWDLRHDYWGQGTQVTVSS", "polyreactivity (PSR sort gate)": "low polyreactivity"}
{"sequence chain": "QVQLVESGGGLVQAGGSLRLSCAASGSTFPGNAMGWYRQAPGKERELVASISGGGDSTYYADSVKGRFTISRDNAKNTVYLQMISLKPEDTAVYYCAVDIDSNSGTRDYWGQGTQVTVSS", "polyreactivity (PSR sort gate)": "low polyreactivity"}
{"sequence chain": "QVQLVESGGGLVQAGGSLRLSCAPSGSIFRWYAMGWYRQAPGKERELVAAITSGGSTYYADSVKGRFTISRDNAKNTVYVQMNSLKPEDTAVYYCNAAKLASHTYDYWGQGTQVTVSS", "polyreactivity (PSR sort gate)": "low polyreactivity"}

###

assay: yeast display, Sf9 membrane polyspecificity reagent, FACS + sequencing; frameworks hold sequencing errors
endpoint label: polyreactivity (PSR sort gate)

{"sequence chain": "QVQLVESGGGLVQAGGSLRLSCAASGSTFRYYAMGWYRQAPGKERELVAAISRSGGRTYYADSVKGRYTISRDYAKKTVYLQMNSLKPEDTAVYYCAVDIVSIRGYTYGYWGQGTQVTVSS", "endpoint label": "polyreactivity (PSR sort gate)", "result": "high polyreactivity"}
{"sequence chain": "QVQLGESVGGLVQAGGSLRLSCAASGRIFEPYAMGWYRQAPGKESELVAAINSGGSTNYADSVKGRFTISRDNAKNTVYLQMNSLKPEDTAVYYCNKGQNIRQSPGDYWGLGTQVTVSS", "endpoint label": "polyreactivity (PSR sort gate)", "result": "low polyreactivity"}
{"sequence chain": "QVQLVESAGGLVQAGGSLSLICAASGFIFDSYAMGWSRQAPGKERELVAAIDKRGGRTYYADSEKGRFTISRDNAKNTVYLQMNSLKPEDTAVYFCAADDYTGYGYWGQGTQVTVSS", "endpoint label": "polyreactivity (PSR sort gate)", "result": "high polyreactivity"}
{"sequence chain": "QVQLVESGGGLVQAGGSLRLSCAASGLTFDYYTMGWYRQAPGNERELVAAINWSGGRTYYADSVKGRFTISRDNAKNTVYLQMNSLKPEDTAVYYCAAETYRRHDYDYWGQGTQVTVSS", "endpoint label": "polyreactivity (PSR sort gate)", "result": "high polyreactivity"}

# batch size: 2; output polyreactivity (PSR sort gate) per entry
1. QVQLVESGGGLVQAGGSLRLSCAASGRIFGVYAMGWYRPAPGKERELVAGINGGDSTYYADSVKGRFTISRDNAKNTVYLQMNSLKPEDTAVYYCAAEADESGSNYDYWGQGTQVTVSS
2. QVQLVESGGGLVQAGGSLRLSCAASGRIFGGYTMGWYRQAPGKERELVAAIRWSGGRTYYADSVKGRFTISRDNAKNTVYLQMNSLKPEDTAVYYCNRTPRYTIRYGYWGQGTQVTVSS

["low polyreactivity", "high polyreactivity"]

###

assay: yeast display, Sf9 membrane polyspecificity reagent, FACS + sequencing; frameworks hold sequencing errors
endpoint label: polyreactivity (PSR sort gate)

Some sequences with known polyreactivity (PSR sort gate) results, for comparison:
{"sequence chain": "QVQLGESGGGLVQAGGSLRLSCAASGFTFYRYTLGWYRQAPGKERELVASITRRGGSTYYADSVKGRFTISRDNAKNYVYLQMNSLKPEDTAVYDCNAATPVWQSGTYEYWGQGTQVTVSS", "endpoint label": "polyreactivity (PSR sort gate)", "result": "high polyreactivity"}
{"sequence chain": "QVQLVESGGGLVQAGGSLRLSCAASGSIFAWYGMGWSRQAPGKERELVAAISTAGSTNYADSVKGRFTISRDNAKNTVYFQMNSLKPEDTAVYYCAKKSSWYYPERFDYWGQGTQVTVSS", "endpoint label": "polyreactivity (PSR sort gate)", "result": "low polyreactivity"}
{"sequence chain": "QVQLVESGGGLVQAGGSLRLSCAASGSTFARNAMGWYRQAPGKERELVAAITYSGGRTYYADSVKGRFTISRDNAKNTVYLQMNSLKPEDTAVYYCAADIVSSTDYPFDYWGQGTQVTVSS", "endpoint label": "polyreactivity (PSR sort gate)", "result": "low polyreactivity"}
{"sequence chain": "QVQLVESGGGLVQAGGSLRLSCAASGRTFGRYTMGWYIQAPGKERELGASISNTARTNYADSVKGRFTISRDNAKNTVYLQMNSLKPEDTAVYYCAAGFVRYRGTRDYWGQGTQVTVSS", "endpoint label": "polyreactivity (PSR sort gate)", "result": "low polyreactivity"}
{"sequence chain": "QVQLVESGGGLVQAGGSLRLSCAASGRTFYRNAMGWYRQAPGKERELFATINSGGSTHYADSVKGRFTISRDNAKNTVYLQMTSLKPEDNAVYYCAARSQSYRGSLSYYWGQGTQVTVSS", "endpoint label": "polyreactivity (PSR sort gate)", "result": "high polyreactivity"}

# batch size: 3; output polyreactivity (PSR sort gate) per entry
1. QVQLVESGGGLVQAGGSLRLSCAASGSTFGKYAMGWYRQAPGKEREFVAAITWSGGRTYYADSVKGRFTISRDNAKNTVYLQMNSLKPEDTAVDYCAALWAYYSRGYYWGQGTQVTVSW
2. QVQLVESGGGLVQAGGSLRLSCAASGSILKSNAMGWYRQAPGKERELVAAITYRDGSTYYADSVKGRFTISRDNAKNTVYLQMNSLKAEDTAVYYCAAEPSWWNVFYPGYNYWGQGTQVTVSS
3. QVQLVDSGGALVQAGGSLRLRCAASGSTFFPNAKGWYRQAPGKERELVATIKYADSVKGRFTISRYNAKNTVYLQMNSLKPEDTAVYYCAGGGRVRYDYWGQGTQVTVSS

1. high polyreactivity
2. high polyreactivity
3. low polyreactivity

###

test: yeast display, Sf9 membrane polyspecificity reagent, FACS + sequencing; frameworks hold sequencing errors
endpoint label: polyreactivity (PSR sort gate)

Some sequences with known polyreactivity (PSR sort gate) results, for comparison:
{"sequence chain": "QVQLVESGGGLVQAGGSLRLSCAASGSIFTDNAMGWYRQAPGKERELVAAITGRGGNTYYADSVKGRFTISRDNAKNTVYLQMNSLKPEDTAVYYCAARIFRTRKPLGYWGQGTQVTVSS", "polyreactivity (PSR sort gate)": "high polyreactivity"}
{"sequence chain": "QVQLVESGGGLVQAGGSLRLSCAASGRTFYPYVMGWYRQAPGKERELVATISWSGGSTYYADSVKGRFTISRDNAKNTVYLQMNSLKPEDTAVYYCAALWPYGYWGQGTQVTVSS", "polyreactivity (PSR sort gate)": "low polyreactivity"}
{"sequence chain": "QVQLVESGGGLVQAGGSLRLSCAASGSIFDRNAMGWYRQAPGKERELVSAISRGGRTYYADSVKGRFTISRDNAKNTVYLQMNSLKPEDTAVYDCAAGYPSAWAYTTDDYWGQGTQVTVSS", "polyreactivity (PSR sort gate)": "low polyreactivity"}
{"sequence chain": "QVQLVESGGGIVQAGGSLRLSCAASGFTFYRYAMGWYRQAPGKERELVAAITWSGGSTYYADSVKGRFTISRDNAKNTVYLQMNSLKPEDTAVYYCAADIYDGGFDYWGQGTQVTVSS", "polyreactivity (PSR sort gate)": "low polyreactivity"}

Now consider the entry below.
Find the recorded polyreactivity (PSR sort gate) belonging to QVQLVESGGGLVQAGGSLRLSCAASGGTITRYAMGWYRQAPGKERELVAAISSSGGSTYYADSVKGRFTISRDNAKNTVYLQMNSLKPEDTAVYYCAAEGYTLWYWLEFEYWGQGTQVTVSS and report it.
high polyreactivity

###

experiment: yeast display, Sf9 membrane polyspecificity reagent, FACS + sequencing; frameworks hold sequencing errors
endpoint label: polyreactivity (PSR sort gate)

{"sequence chain": "QVQLVESGGGLVQAGGSLRLSCAASGRSFYLYAMGWYRQAPGKERELVAGITSGGRTNYADSVKGRFTISRDNAKNTVYLQMNSLKPEDTAVYYCAAGSRRYKYDYWGQGTQVTVSS", "result": "high polyreactivity"}
{"sequence chain": "QVQLVESAGGLVQAGGSLRLSCAASGRTFYPYAMGWYRQAPGKARELVAAIRSSGGTTYYADSVKGRFTISRDNAKNTVYVQMNSLKPEDTAVYYCAAFVDRQGGYYWGQGTQVTVSS", "result": "high polyreactivity"}
{"sequence chain": "QVQLVESGGGLVQAGGSLRLSCAASGFTFRFYAMGWYRQAPGKERELVATISSRGGRTYYADSVKGRFTISRDNAKNTVYLQLNSLKPEDTAVYYCAADQKSQYQGNYWGQGTQVTVSS", "result": "high polyreactivity"}

###

experiment: yeast display, Sf9 membrane polyspecificity reagent, FACS + sequencing; frameworks hold sequencing errors
endpoint label: polyreactivity (PSR sort gate)

Some sequences with known polyreactivity (PSR sort gate) results, for comparison:
{"sequence chain": "QVQLVESVGGLVQAGGSLRLSCAASGLIFIISTMGWDRQAPGKERELVAAITRRGGITYYADSVKGRFTISRDNAKNTVYLQMNSLKPEDTAVYYCAVVRPYNIWYDYWGQGTQVTVSS", "polyreactivity (PSR sort gate)": "low polyreactivity"}
{"sequence chain": "QVQLVESGGGLVQAGGSLRLSCAASGSTCDYNAMGWYRQAPGKERELVAAITSTGGNTYYADSVKGRFTISRDKAKNTVYLQMNSLKPADTAVYYCNKDVARYPYGKFDYWGQGTQVTVSS", "polyreactivity (PSR sort gate)": "low polyreactivity"}
{"sequence chain": "QVQLVESGGGLVQAGGSLRLSCAASGIISGRNTMGWFRLARGKERELVAAISGSGGSTHYADSVKGRFPSSRDNAKNTVYLQSNSLKPEDTAVYYCAADTAYVYSMDYWGQGTQVTVSS", "polyreactivity (PSR sort gate)": "high polyreactivity"}
{"sequence chain": "QVQLVESGGGLVQAGGSLRLSCAASGSIFYYYAMGWYRQAPGKEREFVAAITKRADRTYYADSVKGRFTISRDNAKNTVYLQMNSLKPEDTAVYYCNADFVWRNGYLGFYRYDYWGQGTQVTVSS", "polyreactivity (PSR sort gate)": "low polyreactivity"}

Now consider the entry below.
Find the recorded polyreactivity (PSR sort gate) belonging to QVQLVESGGGLVQAGGSLRLSCAASGSIFDNNAMGWYRQAPGKERELVAAISRSGGSTYYADSVKGRFTISRDNAKNTVYLQMNSLKPDDTAVYYCAALPSRPRGYDYWGQGTQVTVSS and report it.
high polyreactivity
